# targetDesc: human SGLT1 (hSGLT1) (human)
# Sequence (P13866 whole entry, looked up): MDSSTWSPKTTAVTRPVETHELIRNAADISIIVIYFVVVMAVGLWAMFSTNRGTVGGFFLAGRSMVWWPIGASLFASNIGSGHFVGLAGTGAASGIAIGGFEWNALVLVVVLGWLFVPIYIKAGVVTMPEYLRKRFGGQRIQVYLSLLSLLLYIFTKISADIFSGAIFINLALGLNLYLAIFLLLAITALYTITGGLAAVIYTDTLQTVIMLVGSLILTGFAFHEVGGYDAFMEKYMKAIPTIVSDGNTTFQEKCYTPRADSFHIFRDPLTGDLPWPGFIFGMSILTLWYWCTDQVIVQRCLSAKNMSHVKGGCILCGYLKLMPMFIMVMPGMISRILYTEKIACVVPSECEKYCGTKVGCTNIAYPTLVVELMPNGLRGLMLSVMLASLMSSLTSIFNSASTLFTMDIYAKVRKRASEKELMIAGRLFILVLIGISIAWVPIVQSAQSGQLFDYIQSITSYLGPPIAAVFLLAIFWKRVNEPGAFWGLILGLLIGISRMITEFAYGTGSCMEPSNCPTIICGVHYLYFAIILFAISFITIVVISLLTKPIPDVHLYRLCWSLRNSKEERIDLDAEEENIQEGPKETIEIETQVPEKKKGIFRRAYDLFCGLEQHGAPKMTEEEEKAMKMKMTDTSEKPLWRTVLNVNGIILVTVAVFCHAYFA
# experimentNotes: primary screen, percent of control activity; higher = less effect of the substance
# Parameters: single well
# studyConditions: 50 µM
Among all 1,900 compounds or so, about 40 (2%) showed an effect of 50% or more. The list comes from a sample in which strong results are over-represented; it also holds close analogues and randomly drawn compounds.
parameter: NORMALIZED SGLT1 ACTIVITY (%)
Note: unit % is implicit; provide only the numeric part.

Completed entries (count: 5):
- molecule: "CCCn1c(=O)c2nc(C3CCCC3)[nH]c2n(CCC)c1=O"
  val: 180
- molecule: "O=C([O-])CF.[Na+]"
  val: 96
- molecule: "O=C1C=CC(=C(c2ccc(O)cc2)c2ccc(O)cc2)C=C1"
  val: 78
- molecule: "CN(C)c1ccc(C(=C2C=CC(=[N+](C)C)C=C2)c2ccc(N(C)C)cc2)cc1.[Cl-]"
  val: 43
- molecule: "CCC(CCC(C)[C@H]1CCC2C3CC=C4C[C@@H](O)CC[C@]4(C)C3CC[C@@]21C)C(C)C (stereo partly drawn)"
  val: 106

Tell me the measured NORMALIZED SGLT1 ACTIVITY (%) of "C[n+]1c2cc(N)ccc2cc2ccc(N)cc21.[Cl-]" , please. 169
